- Assay target: Hck (UniProt P08631)
- Sequence (P08631 whole entry, looked up): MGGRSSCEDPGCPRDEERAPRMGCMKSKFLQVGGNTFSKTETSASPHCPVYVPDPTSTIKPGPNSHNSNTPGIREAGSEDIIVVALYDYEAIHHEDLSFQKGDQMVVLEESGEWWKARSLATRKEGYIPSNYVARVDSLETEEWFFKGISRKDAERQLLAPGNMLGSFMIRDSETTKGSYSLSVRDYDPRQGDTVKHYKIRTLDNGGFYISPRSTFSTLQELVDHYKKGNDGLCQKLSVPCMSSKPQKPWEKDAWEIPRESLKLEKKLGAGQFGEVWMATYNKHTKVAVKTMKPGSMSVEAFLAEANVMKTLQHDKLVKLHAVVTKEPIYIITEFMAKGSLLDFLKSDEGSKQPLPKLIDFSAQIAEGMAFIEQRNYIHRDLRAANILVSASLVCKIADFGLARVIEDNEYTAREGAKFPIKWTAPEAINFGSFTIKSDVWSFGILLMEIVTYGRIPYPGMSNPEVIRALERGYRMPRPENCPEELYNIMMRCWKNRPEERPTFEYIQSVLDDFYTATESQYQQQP
- Experiment summary: phosphorylation enrichment, bacterial display (enrichment ratio); higher = better substrate or ligand; peptides without Tyr show the background;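 further: 11-residue human phosphosite peptides and single-mutation variants displayed on the E. coli surface, counted by deep sequencing, each peptide's frequency after selection divided by its frequency in the unselected input library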;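 further: frequency after pTyr selection over input frequency; kinase dosed for 20-30% of maximal phosphorylation in three min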
Where phosphorylation enrichment equals or exceeds 0.5, the correct label is Y; where it does not, the label is N.

| Polymer sequence | Label value |
| --- | --- |
| KDKLPYLFDDP [GPX2_Y125_P126L_YF] | N |
| GPTLSYGRDGR [MATR3_Y158] | N |
| EEQKKYFNAMK [SCN5A_Y1494_YF] | N |
| MSRNLYSGDYY [DDR2_Y736] | Y |
| LLTALYFISWG [KCNH2_Y780_R784W] | Y |
| MKGDFYRFLAE [YWHAG_Y131_YF] | N |
| VSGIPYGQPKQ [NEU1_Y251] | N |
| VVQGIYGFHHH [UFSP2_Y285_Y290H_YF] | Y |
| LANNEYYFRVC | Y |
| YHIDHYLGKEM [G6PD_Y202_R198H] | N |
| LAGRFYALRSM [CKB_Y174_K177R_YF] | Y |
| MTFQNYRQALF [FAM20C_Y279_G280R] | N |
| HIKHNYECLVY [XRCC5_Y416] | Y |
| SVTCTYSPAFN [TP53_Y126_L130F] | Y |

----------
- Assay target: Fes (UniProt P07332)
- Sequence (P07332 whole entry, looked up): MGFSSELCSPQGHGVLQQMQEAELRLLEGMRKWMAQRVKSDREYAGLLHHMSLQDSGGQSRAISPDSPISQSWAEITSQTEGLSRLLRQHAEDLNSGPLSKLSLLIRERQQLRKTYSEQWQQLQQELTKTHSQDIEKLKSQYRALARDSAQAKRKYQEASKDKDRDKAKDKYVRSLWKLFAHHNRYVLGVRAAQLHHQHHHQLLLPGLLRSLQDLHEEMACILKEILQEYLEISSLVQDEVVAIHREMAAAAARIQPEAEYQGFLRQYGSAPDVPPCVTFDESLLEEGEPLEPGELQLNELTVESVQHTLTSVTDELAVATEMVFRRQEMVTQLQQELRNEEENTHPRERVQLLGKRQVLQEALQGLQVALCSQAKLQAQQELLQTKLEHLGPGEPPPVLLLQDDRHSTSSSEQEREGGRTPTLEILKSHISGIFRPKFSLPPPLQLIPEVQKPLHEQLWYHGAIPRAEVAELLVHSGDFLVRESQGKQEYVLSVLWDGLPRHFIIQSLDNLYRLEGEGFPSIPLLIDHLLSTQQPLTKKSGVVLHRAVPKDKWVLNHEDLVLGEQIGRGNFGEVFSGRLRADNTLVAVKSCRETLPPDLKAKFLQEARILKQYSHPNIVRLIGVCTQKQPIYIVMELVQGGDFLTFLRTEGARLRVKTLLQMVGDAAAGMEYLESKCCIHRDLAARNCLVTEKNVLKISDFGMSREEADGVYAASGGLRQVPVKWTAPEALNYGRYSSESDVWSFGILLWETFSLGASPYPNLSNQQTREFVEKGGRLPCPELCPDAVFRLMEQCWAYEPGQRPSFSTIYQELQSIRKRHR
- Experiment summary: phosphorylation enrichment, bacterial display (enrichment ratio); higher = better substrate or ligand; peptides without Tyr show the background
phosphorylation enrichment for assorted sequences

| Polymer sequence | phosphorylation enrichment |
| --- | --- |
| YVSSFYHAFSG [ACTN4_Y265] | 0.884 |
| KWHREYNSKFV [RICTOR_Y835_YF] | 0.623 |
| SVTCTYSRALN [TP53_Y126_P128R] | 1.28 |
| DPHQQYYIAMD [TBX15_Y159] | 0.881 |
| ASLEAYCKHKY [RXRA_Y403] | 1.01 |
| DSEIRYLSADS [TTF1_Y476] | 0.933 |
| YTFNSYYMHWV [IGHV1-46_Y51_T49N] | 1.6 |
| RRIHSNRGHLW [VHL_Y112_Y112N] | 0.732 |
| HAVFVCDICHV [TWNK_Y508_Y508C_YF] | 0.836 |
| FEPWVYSFSFE [PRKDC_Y647_YF] | 1.65 |
| NTQRPYYKGGG [TYROBP_Y111] | 0.592 |
| VIEFSYTSADG [DHCR7_Y382_C380Y_YF] | 1.16 |
| FTRNYYVWAVL [CYBA_Y88_R90W] | 1.7 |
| VMLENYSNLVS [ZFP69_Y109] | 0.781 |
| KASRKYFAMKI [AKT3_Y173_G171R_YF] | 0.52 |
| NGSKAYAFVHF [PABPC5_Y147_G146A_YF] | 1.02 |
| CEDGTYSPEIS [PTDSS1_Y424] | 1.33 |
| LERYIYNREEY [HLA-DPB1_Y59_F64Y] | 1.25 |
| CTTIHYNFMCN [TP53_Y234_Y236F] | 0.923 |
| RPSELYYSKIG [SMG1_Y2253] | 1.23 |
| PEADKYRLPFA [FGG_Y300_T303P_YF] | 0.717 |
| KNNDGYIDFAE [MCFD2_Y135_YF] | 1.06 |

----------
- Assay target: MERTK (UniProt Q12866)
- Sequence (Q12866 whole entry, looked up): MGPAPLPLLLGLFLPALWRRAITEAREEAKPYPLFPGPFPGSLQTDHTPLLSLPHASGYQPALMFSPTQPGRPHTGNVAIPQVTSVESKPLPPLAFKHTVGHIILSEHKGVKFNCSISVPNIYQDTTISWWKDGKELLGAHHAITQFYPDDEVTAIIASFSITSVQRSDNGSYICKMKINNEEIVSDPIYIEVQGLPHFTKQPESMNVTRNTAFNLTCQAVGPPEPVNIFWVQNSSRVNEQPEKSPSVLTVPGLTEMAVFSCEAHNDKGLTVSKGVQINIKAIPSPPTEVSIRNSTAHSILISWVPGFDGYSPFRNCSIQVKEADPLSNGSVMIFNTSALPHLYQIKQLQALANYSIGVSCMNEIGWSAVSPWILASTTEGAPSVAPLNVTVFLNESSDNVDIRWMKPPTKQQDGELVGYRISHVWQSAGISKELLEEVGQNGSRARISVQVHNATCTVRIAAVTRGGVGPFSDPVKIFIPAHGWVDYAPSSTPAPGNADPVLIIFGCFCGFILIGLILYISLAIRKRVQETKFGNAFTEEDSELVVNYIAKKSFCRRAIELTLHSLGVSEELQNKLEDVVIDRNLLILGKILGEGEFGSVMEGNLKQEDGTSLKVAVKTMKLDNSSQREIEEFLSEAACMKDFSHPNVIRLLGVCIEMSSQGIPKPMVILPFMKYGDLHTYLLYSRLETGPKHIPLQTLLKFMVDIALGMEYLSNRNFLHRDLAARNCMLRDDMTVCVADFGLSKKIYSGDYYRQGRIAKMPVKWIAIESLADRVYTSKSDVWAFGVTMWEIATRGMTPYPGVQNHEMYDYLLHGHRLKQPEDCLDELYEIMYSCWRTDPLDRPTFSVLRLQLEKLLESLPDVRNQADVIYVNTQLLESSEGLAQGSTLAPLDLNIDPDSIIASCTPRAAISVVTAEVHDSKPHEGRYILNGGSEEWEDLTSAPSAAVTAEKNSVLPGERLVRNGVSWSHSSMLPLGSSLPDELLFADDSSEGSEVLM
- Experiment summary: phosphorylation enrichment, bacterial display (enrichment ratio); higher = better substrate or ligand; peptides without Tyr show the background

| Polymer sequence | Assay target | phosphorylation enrichment |
| --- | --- | --- |
| VIEFSYTSADG [DHCR7_Y382_C380Y_YF] | MERTK (UniProt Q12866) | 0.415 |
| LERYIYNREEY [HLA-DPB1_Y59_F64Y] | MERTK (UniProt Q12866) | 0.719 |
| LERDIYNREEF [HLA-DPB1_Y59_Y57D] | MERTK (UniProt Q12866) | 0.49 |
| GESKDYALHAG [SVIL_Y185_V189A] | MERTK (UniProt Q12866) | 0.36 |
| QAFSWYQHQRA [NDST1_Y714_R709Q_YF] | MERTK (UniProt Q12866) | 0.569 |
| VDTPMYATMQR [TPO_Y55_A53P] | MERTK (UniProt Q12866) | 1.81 |
| EWKQKYEESQS [MYH6_Y1462] | MERTK (UniProt Q12866) | 0.357 |
| GVKLTYGDAQN [SLC28A1_Y404] | MERTK (UniProt Q12866) | 0.397 |
| FISVGYVDDTQ [HLA-B_Y51] | MERTK (UniProt Q12866) | 0.432 |
| HRDSSYYWEIE [RAF1_Y340_Q335H] | MERTK (UniProt Q12866) | 4.59 |
| VASSLYDILAR [GLB1_Y294] | MERTK (UniProt Q12866) | 8.38 |
| VRFTEYETQVK [TARDBP_Y155] | MERTK (UniProt Q12866) | 0.401 |
| SNYRAYATEPQ [TNNI3_Y29_H34Q] | MERTK (UniProt Q12866) | 0.428 |
| YMLYQYLKQIE [RPAP3_Y569_D564Y] | MERTK (UniProt Q12866) | 8.62 |
| AESPEYVHMYT [FAM111A_Y511] | MERTK (UniProt Q12866) | 0.413 |
| VDSAHYQLLET [DTX3L_Y385_K386Q] | MERTK (UniProt Q12866) | 1.13 |
| MKGDFYRFLAE [YWHAG_Y131_YF] | MERTK (UniProt Q12866) | 0.734 |

----------
- Assay target: FGFR1 (UniProt P11362)
- Sequence (P11362 whole entry, looked up): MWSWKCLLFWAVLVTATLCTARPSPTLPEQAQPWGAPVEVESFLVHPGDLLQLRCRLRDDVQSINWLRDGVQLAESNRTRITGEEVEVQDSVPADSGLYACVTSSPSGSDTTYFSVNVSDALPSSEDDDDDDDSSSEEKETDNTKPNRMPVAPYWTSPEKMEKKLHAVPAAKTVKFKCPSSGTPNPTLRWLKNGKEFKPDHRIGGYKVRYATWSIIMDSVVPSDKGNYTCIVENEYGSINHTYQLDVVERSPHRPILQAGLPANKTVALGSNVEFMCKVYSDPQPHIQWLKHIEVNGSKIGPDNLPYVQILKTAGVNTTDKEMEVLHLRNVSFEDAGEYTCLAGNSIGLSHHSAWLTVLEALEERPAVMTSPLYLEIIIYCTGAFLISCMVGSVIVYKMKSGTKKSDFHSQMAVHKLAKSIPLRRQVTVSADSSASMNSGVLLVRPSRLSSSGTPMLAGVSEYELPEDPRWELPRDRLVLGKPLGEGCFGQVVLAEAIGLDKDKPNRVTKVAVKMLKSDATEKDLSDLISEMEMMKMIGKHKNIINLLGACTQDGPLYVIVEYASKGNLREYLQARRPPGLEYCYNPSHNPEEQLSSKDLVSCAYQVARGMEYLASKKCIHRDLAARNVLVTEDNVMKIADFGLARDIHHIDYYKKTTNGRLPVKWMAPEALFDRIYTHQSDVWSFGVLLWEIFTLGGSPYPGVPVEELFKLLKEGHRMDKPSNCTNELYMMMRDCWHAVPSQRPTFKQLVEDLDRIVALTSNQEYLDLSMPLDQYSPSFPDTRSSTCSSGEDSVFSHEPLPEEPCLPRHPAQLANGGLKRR
- Experiment summary: phosphorylation enrichment, bacterial display (enrichment ratio); higher = better substrate or ligand; peptides without Tyr show the background
phosphorylation enrichment for assorted sequences
Measurement name: phosphorylation enrichment

| Polymer sequence | Number |
| --- | --- |
| FAKTQYPDIYA [CRX_Y63_V66I] | 0.449 |
| TENAGYYFQVS | 2 |
| QRPYVYYYSYL [PTEN_Y176_R173P] | 9.79 |
| IEDPFYGNDSD [ACP1_Y133_YF] | 0.643 |
| VEDQFYRVDCF [FHL1_Y208_C209R_YF] | 0.522 |
| NYADPYRQLPY [CTNND2_Y503_Q507P] | 4.13 |
| RSPLRYTSILT [OR51B6_Y130] | 0.536 |
| YISLIYTNYEV [GSTP1_Y109_A114V] | 4.89 |
| KPFRVYCDMNT [FGB_Y269_YF] | 0.597 |
| NHQFDYTFDWT [CSNK1A1_Y294_YF] | 3.58 |
| FSEVRYVKEPY [HIPK4_Y170] | 0.668 |
| TTEHIYGDKFF [UBA7_Y524_N527K] | 0.597 |
| GYSRHCEDGYP [CTNND1_Y217_Y217C] | 0.46 |

----------
- Assay target: MERTK (UniProt Q12866)
- Experiment summary: phosphorylation enrichment, bacterial display (enrichment ratio); higher = better substrate or ligand; peptides without Tyr show the background
phosphorylation enrichment for assorted sequences

| Polymer sequence | Assay target | phosphorylation enrichment |
| --- | --- | --- |
| PEADKYRLPFA [FGG_Y300_T303P_YF] | MERTK (UniProt Q12866) | 0.442 |
| NFDRVYIFHLR [MYOF_Y1137_YF] | MERTK (UniProt Q12866) | 0.46 |
| KQLGEYKFQNA [ALB_Y425_E420K] | MERTK (UniProt Q12866) | 0.399 |
| KAEQLYIGVTV [EFHC2_Y509_E507Q] | MERTK (UniProt Q12866) | 2.99 |
| SSSPTYLDLPF [GLI3_Y168_P169L] | MERTK (UniProt Q12866) | 1.12 |
| SHLLRYLSWTV [CLCNKB_Y93] | MERTK (UniProt Q12866) | 0.37 |
| KDKLPYLFDDP [GPX2_Y125_P126L_YF] | MERTK (UniProt Q12866) | 0.426 |
| YNNYGYGSDGF [HNRNPH3_Y161_N163S] | MERTK (UniProt Q12866) | 0.652 |
| YGLPRYRWLTH [TSPAN12_Y143] | MERTK (UniProt Q12866) | 0.492 |
| DRTGHYLCNAC [GATA1_Y223] | MERTK (UniProt Q12866) | 0.499 |
| MSRLKYPVSQQ [BTK_Y375_I370M] | MERTK (UniProt Q12866) | 0.478 |
| EPTPGYEVGQR [TSC2_Y1788] | MERTK (UniProt Q12866) | 0.491 |
| RLRKFYLGKFL [KLB_Y906_YF] | MERTK (UniProt Q12866) | 0.645 |
| ALMGPYHGQVL [HADHA_Y343_L342P] | MERTK (UniProt Q12866) | 0.335 |
| EVTRLYGSVCD [TC2N_Y154_K151T] | MERTK (UniProt Q12866) | 0.727 |
| MKGEYYRYLAE [YWHAG_Y131_D129E] | MERTK (UniProt Q12866) | 0.471 |
| NGSKAYAFVHF [PABPC5_Y147_G146A_YF] | MERTK (UniProt Q12866) | 0.71 |
| RRIHRYRGHLW [VHL_Y112_S111R] | MERTK (UniProt Q12866) | 0.575 |
| FPKARYHWLVL [APTX_Y214_YF] | MERTK (UniProt Q12866) | 0.731 |
| CEHRGYLFLAI [TEK_Y897_YF] | MERTK (UniProt Q12866) | 0.37 |
| QADVTYVNTQL [MERTK_Y872_I871T] | MERTK (UniProt Q12866) | 0.522 |
| QAINEYEKWLE [MAP9_Y603] | MERTK (UniProt Q12866) | 0.663 |
| VNTMLYEKFTY [TEK_Y1108_T1106M] | MERTK (UniProt Q12866) | 7.49 |
| LISVSYDDWDF [GRIN2A_Y281_YF] | MERTK (UniProt Q12866) | 1.03 |
| PRDSGYSFETI [MAP1B_Y1921_S1917R_YF] | MERTK (UniProt Q12866) | 0.755 |
| SLGKGYYDGGC [MC4R_Y35_S36Y] | MERTK (UniProt Q12866) | 0.514 |
| PLDGESFTLQI [TP53_Y327_Y327S] | MERTK (UniProt Q12866) | 0.549 |
| KKILCYIQGGS [HYDIN_Y4610_N4606K] | MERTK (UniProt Q12866) | 0.549 |
| IFGVSYDEYRY [CFTR_Y512] | MERTK (UniProt Q12866) | 0.434 |
| MYDKEYYSVHN [MET_Y1234] | MERTK (UniProt Q12866) | 0.813 |
| VITDFYVDMKF [MPP4_Y567_YF] | MERTK (UniProt Q12866) | 0.52 |
| RLRKYYLGKYL [KLB_Y906] | MERTK (UniProt Q12866) | 0.73 |
| WNDLDYMDSRR [GAA_Y407] | MERTK (UniProt Q12866) | 0.371 |
| SLQFEYVHYGG [CDC14A_Y591_S589F] | MERTK (UniProt Q12866) | 0.348 |
| YLENYYDLKKD [MMP3_Y42] | MERTK (UniProt Q12866) | 1.81 |
| NYDLDYDSVQP [MYC_Y16] | MERTK (UniProt Q12866) | 0.493 |
| AEEEIYGIFGA [SRCtide_2014] | MERTK (UniProt Q12866) | 3.88 |
| MSLRSYGSWEG [APC_Y96_R99W] | MERTK (UniProt Q12866) | 0.047 |
| TFMKKYPKVFL [CNBD1_Y70_Q69K] | MERTK (UniProt Q12866) | 0.404 |
| FTGNTYRVGDT [FN1_Y106_YF] | MERTK (UniProt Q12866) | 0.394 |
| MDYRSYPHEYG [RBM10_Y44_R46H] | MERTK (UniProt Q12866) | 0.486 |
| AGRSGYDNREI [BCL2_Y9_T7S] | MERTK (UniProt Q12866) | 0.366 |
| KASRKYFAMKI [AKT3_Y173_G171R_YF] | MERTK (UniProt Q12866) | 0.811 |
| GLAELYEYKKK [CKAP5_Y1854] | MERTK (UniProt Q12866) | 0.303 |
| LANNEYYFRVC | MERTK (UniProt Q12866) | 0.823 |
| EAIMTYVSSFY [ACTN4_Y260_K255E] | MERTK (UniProt Q12866) | 0.457 |
